FYI, the data here is from PubChem BioAssay (NCI).

- System: A498 renal
- assay-details: NCI tumour cell line growth inhibition, 48 h; in the data active = GI50 below about 0.43 µM; inactive = the rest
Result category, one only: active, inactive

-- ask Identify the outcome logged in this assay for the molecule shown: Cc1cn(-c2cccc(NC(=O)c3ccc(C)c(Nc4nccc(-c5cccnc5)n4)c3)c2)cn1
-- reply inactive

-- ask Returns: the outcome recorded for COc1cc(F)ccc1-c1cc(Nc2cc(CS(C)(=N)=O)ccn2)ncc1F (stereo not given) in this assay.
-- reply active

-- ask # fetch the recorded call for C/C(=C(/c1ccccc1)c1ccc(OCC(O)CNCCN2CCOCC2)cc1)c1ccccc1 (stereo not given) here
-- reply inactive

-- ask Each molecule tested received a call. Report the one for CN(C)CCCOc1cccc(NC2=C(Cl)C(=O)C(Nc3cccc(OCCCN(C)C)c3)=C(Cl)C2=O)c1 .
-- reply inactive

-- ask What is the recorded call for this molecule in the test? COc1cc([C@@H]2c3cc4c(cc3[C@H](OC(C)=O)[C@H]3COC(=O)[C@@H]23)OCO4)cc(OC)c1OC
-- reply active
